Target: BACE-2 (Homo sapiens)
Construct: Recombinant BACE-2 (extracellular domain, expressed in baculovirus and purified using standard methods)
Assay: assay for inhibition of BACE-2
experimentalReadout: IC50 (nM)
Answers are plain numbers, in nM.

NC1=N[C@@](c2cc(NC(=O)c3ncc(C(F)F)nc3N)ccc2F)(C(F)F)COC1
116

Batch: IC50 for all items listed.
1. COc1cnc(C(=O)Nc2ccc(F)c([C@]3(C(F)F)CNCC(N)=N3)c2)c(N)n1 (single isomer, unassigned)
2. Cc1ccc(C(=O)Nc2ccc(F)c([C@]3(C(F)F)COCC(N)=N3)c2)nc1

Result:
1. 115
2. 66

====

Target: BACE-2 (Homo sapiens, UniProt Q9Y5Z0)
Construct: Recombinant BACE-2 (extracellular domain, expressed in baculovirus and purified using standard methods); made in house
Sequence (Q9Y5Z0 63-473 limits assumed): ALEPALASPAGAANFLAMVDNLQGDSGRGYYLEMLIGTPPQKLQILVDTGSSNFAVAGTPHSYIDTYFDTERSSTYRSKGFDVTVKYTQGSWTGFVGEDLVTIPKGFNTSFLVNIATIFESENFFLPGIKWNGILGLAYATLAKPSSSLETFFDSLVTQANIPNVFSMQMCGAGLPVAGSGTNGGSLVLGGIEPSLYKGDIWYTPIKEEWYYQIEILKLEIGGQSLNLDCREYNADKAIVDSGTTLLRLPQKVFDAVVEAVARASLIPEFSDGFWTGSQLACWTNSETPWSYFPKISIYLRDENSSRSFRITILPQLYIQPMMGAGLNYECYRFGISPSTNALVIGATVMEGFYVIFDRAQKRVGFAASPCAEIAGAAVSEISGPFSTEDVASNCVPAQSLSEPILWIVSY
Test: assay for inhibition of BACE-2
Type: biochemical
Counter-ions that a name gives are not always drawn.
Please go through the items and note down their pIC50.
One number for each entry, as −log10 of the molar value.

COc1cc(Br)cnc1C(=O)Nc1ccc(F)c([C@]2(C(F)F)COCC(N)=N2)c1
7.38
CC1(C)OCC(c2cc(NC(=O)c3ccc(C#N)cn3)ccc2F)(C(F)F)N=C1N (centres unmarked)
6.50
CC1(c2cccc(NC(=O)c3cc(Br)co3)c2)COCC(N)=N1 (centres unmarked) [Example 20, hydrochloride]
6.65
Cl.[2H]c1nc(C(=O)Nc2ccc(F)c([C@]3(CF)COCC(N)=N3)c2)c(C([2H])([2H])[2H])c([2H])c1Cl
8.85
Cc1cc(OC(F)F)cnc1C(=O)Nc1ccc(F)c([C@]2(C(F)F)COCC(N)=N2)c1 [Example 176, hydrochloride]
6.74

Query: Recall the recorded pIC50 for COc1cc(C(F)F)c(C(=O)Nc2ccc(F)c([C@]3(C)CO[C@@](C)(C(F)(F)F)C(N)=N3)c2)nn1 [Example 244, hydrochloride] with BACE-2 (Homo sapiens, UniProt Q9Y5Z0) and state it.
Result: 8.05

====

Target: BACE-2 (Homo sapiens, UniProt Q9Y5Z0)
Construct: Recombinant BACE-2 (extracellular domain, expressed in baculovirus and purified using standard methods)
Assay: assay for inhibition of BACE-2
Where a name gives a salt, the structure may show the parent alone.
experimentalReadout: IC50 (nM)
Numbers only, in nM.

Cc1cc(Br)cnc1C(=O)Nc1ccc(F)c([C@]2(C(F)F)COCC(N)=N2)c1
10
CC1(c2cccc(NC(=O)c3ccccn3)c2)COCC(N)=N1 (centres unmarked) [Example 13, hydrochloride]
431
COCCN1CC(C)(c2cc(NC(=O)c3ncc(Cl)cc3Cl)ccc2F)N=C(N)C1=O (centres unmarked) [Example 195, hydrochloride]
6
CC1(C)OCC(c2cc(NC(=O)c3ccc(Br)cn3)ccc2F)(C(F)F)N=C1N (centres unmarked)
64
CC(=O)N1CC(N)=NC(c2cc(NC(=O)c3ncc(Br)cc3C)ccc2F)(C(F)F)C1 (centres unmarked)
4
Cl.[2H]c1nc(C(=O)Nc2ccc(F)c([C@]3(C(F)F)COCC(N)=N3)c2)c(C([2H])([2H])[2H])c([2H])c1C#N
165

Now for a further compound.
Query: What value of IC50 has been reported for the following compound? CN1CC(C)(c2cc(NC(=O)c3ccc(Br)cn3)ccc2F)N=C(N)C1=O (centres unmarked) [Example 189, hydrochloride]
Result: 49

Value source: patent US20140128385A1
